For each record, write down the corresponding fold change of Histamine concentration.
Test system: Klebsiella aerogenes DSM 30053
Experiment: fold change of Histamine concentration vs plate DMSO controls (fold change (ratio)); higher = more amine produced, active = hit call of the paper (significant change in both replicates, either direction)
Conditions: incubation time: 27 h, anaerobic, 37 °C
Counter-ions that a name gives are not always drawn.
Just the number, please, no unit after it.

[ask] Which measured fold change of Histamine concentration belongs to C#C[C@]1(O)CC[C@H]2[C@@H]3CCC4=CCCC[C@@H]4[C@H]3CC[C@@]21C [Lynestrenol] (20 µM) , tested on Klebsiella aerogenes DSM 30053?
[reply] 1.06

[ask] Which measured fold change of Histamine concentration belongs to CCCNC(=O)NS(=O)(=O)c1ccc(Cl)cc1 [Chlorpropamide] (20 µM) , tested on Klebsiella aerogenes DSM 30053?
[reply] 1.17

[ask] Which measured fold change of Histamine concentration belongs to OC[C@@H](O)[C@H](O)[C@@H](O)CO [Xylitol] (50 µM) , tested on Klebsiella aerogenes DSM 30053?
[reply] 1.08

[ask] Which measured fold change of Histamine concentration belongs to CC(C)c1nc(N(C)S(C)(=O)=O)nc(-c2ccc(F)cc2)c1/C=C/[C@@H](O)C[C@@H](O)CC(=O)O [Rosuvastatin] (20 µM) , tested on Klebsiella aerogenes DSM 30053?
[reply] 0.953

[ask] Which measured fold change of Histamine concentration belongs to CCOC(=O)[C@@](C)(N)Cc1ccc(O)c(O)c1 [Methyldopate hydrochloride] (20 µM) , tested on Klebsiella aerogenes DSM 30053?
[reply] 0.963

[ask] Which measured fold change of Histamine concentration belongs to CCCc1c2oc(C(=O)O)cc(=O)c2cc2c(=O)cc(C(=O)O)n(CC)c12 [Nedocromil sodium] (20 µM) , tested on Klebsiella aerogenes DSM 30053?
[reply] 1.06

[ask] Which measured fold change of Histamine concentration belongs to CN(C)CC/C=C1/c2ccccc2COc2ccc(CC(=O)O)cc21 [Olopatadine hydrochloride] (20 µM) , tested on Klebsiella aerogenes DSM 30053?
[reply] 1

[ask] Which measured fold change of Histamine concentration belongs to CN(Cc1cnc2nc(N)nc(N)c2n1)c1ccc(C(=O)N[C@@H](CCC(=O)O)C(=O)O)cc1 [Amethopterin] (20 µM) , tested on Klebsiella aerogenes DSM 30053?
[reply] 0.922
